Experiment: Tigecycline plasma PK and % F after PO enteric-coated capsule in dogs
Format: in vivo, Beagle dogs
Details: female, beagle, dog, plasma, po, 45 mg, PO 45 mg enteric-coated capsule with 500 mg CA and 100 mg LLC, SC430; calculated from IV PK data of SC431; mean; read-out: % F
quantity name: bioavailability
Returns: string containing the numeric result and its unit.

Req: Record request: bioavailability value, item CN(C)c1cc(NC(=O)CNC(C)(C)C)c(O)c2c1C[C@H]1C[C@H]3[C@H](N(C)C)C(O)=C(C(N)=O)C(=O)[C@@]3(O)C(O)=C1C2=O [Tigecycline]
Resp: 15.5%

---

Experiment: Tigecycline plasma PK and % F after intraduodenal (ID) injection in anesthetized rats
Format: in vivo, Sprague-Dawley Rats
Details: female, Sprague-Dawley, rat, plasma, other: intraduodenal bolus injection, 4.8 mg/kg, pH 3.5, ID, 100 mM CA (pH 3.5), 26 mM LLC, 4.8 mg/kg (RA851); 0 min
quantity name: concentration at 0 min
Returns: string containing the numeric result and its unit.

Req: Record request: concentration at 0 min value, item CN(C)c1cc(NC(=O)CNC(C)(C)C)c(O)c2c1C[C@H]1C[C@H]3[C@H](N(C)C)C(O)=C(C(N)=O)C(=O)[C@@]3(O)C(O)=C1C2=O [Tigecycline]
Resp: 0 ng/mL

---

Experiment: Tigecycline plasma PK after IV bolus in dogs
Type: in vivo, Beagle dogs
Details: female, beagle, dog, plasma, intravenous, 5 mg, Tigecycline Plasma Concentration, 5 min; 5 mg IV in PBS ([…]), SC431; mean
quantity name: concentration at 5 min (ng/mL)
The reply should be a number in ng/mL, with the unit left off.

Req: Record request: concentration at 5 min value, item CN(C)c1cc(NC(=O)CNC(C)(C)C)c(O)c2c1C[C@H]1C[C@H]3[C@H](N(C)C)C(O)=C(C(N)=O)C(=O)[C@@]3(O)C(O)=C1C2=O [Tigecycline]
Resp: 335

---

Experiment: Tigecycline plasma PK and % F after PO enteric-coated capsule in dogs
Type: in vivo, Beagle dogs
Conditions: female, beagle, dog, plasma, po, 15 mg, PO 15 mg enteric-coated capsule with 500 mg CA and 100 mg LLC ([…]), SC424; mean; read-out: AUC(0-t)
quantity name: AUC(0-t) (ng·h/mL)
The reply should be a number in ng·h/mL, with the unit left off.

Req: Record request: AUC(0-t) value, item CN(C)c1cc(NC(=O)CNC(C)(C)C)c(O)c2c1C[C@H]1C[C@H]3[C@H](N(C)C)C(O)=C(C(N)=O)C(=O)[C@@]3(O)C(O)=C1C2=O [Tigecycline]
Resp: 133

---

Assay: Tigecycline plasma PK and % F after PO enteric-coated capsule in dogs
Format: in vivo, Beagle dogs
Conditions: female, beagle, dog, plasma, po, 30 mg, 30 mg Formulated (500 mg CA, 100 mg LLC) enteric coated capsule, Study 2 (SC430); mean (% CV) excluding animal 5256; read-out: % F
quantity name: bioavailability
Returns: string containing the numeric result and its unit.

Req: Record request: bioavailability value, item "CN(C)c1cc(NC(=O)CNC(C)(C)C)c(O)c2c1C[C@H]1C[C@H]3[C@H](N(C)C)C(O)=C(C(N)=O)C(=O)[C@@]3(O)C(O)=C1C2=O"
Resp: 14.9%

---

Assay: Tigecycline plasma PK and % F after intraduodenal (ID) injection in anesthetized rats
Assay type: in vivo, Sprague-Dawley Rats
Settings: female, Sprague-Dawley, rat, plasma, other: intraduodenal bolus injection, 9 mg/kg, pH 3.5, ID, 400 mM CA (pH 3.5), 26 mM LLC, 9.0 mg/kg (RA853), parent Tigecycline peak only; 60 min
quantity name: concentration at 60 min

Req: Record request: concentration at 60 min value, item CN(C)c1cc(NC(=O)CNC(C)(C)C)c(O)c2c1C[C@H]1C[C@H]3[C@H](N(C)C)C(O)=C(C(N)=O)C(=O)[C@@]3(O)C(O)=C1C2=O [Tigecycline]
Resp: 1060 ng/mL
